Just for reference, ChEMBL document CHEMBL1153781 is where these values come from.

Catalogue of compounds with associated fu
- System: Plasma
- Condition Description: human
- Description: Fraction unbound in human plasma
// no unit string in output, number only

Sample answers from the record:
{"Compound": "CCN1CCCC1CNC(=O)c1cc(S(N)(=O)=O)ccc1OC (centres undefined) [SULPIRIDE]", "fu": 0.6}
{"Compound": "CCn1cc(C(=O)O)c(=O)c2cc(F)c(N3CCNCC3)cc21 [NORFLOXACIN]", "fu": 0.85}
{"Compound": "CC(=O)CC(c1ccccc1)c1c(O)c2ccccc2oc1=O (centres undefined) [WARFARIN]", "fu": 0.01}
{"Compound": "CCS(=O)(=O)CCn1c([N+](=O)[O-])cnc1C [TINIDAZOLE]", "fu": 0.88}
{"Compound": "O=C(O)c1cc(=O)c2c(OCC(O)COc3cccc4oc(C(=O)O)cc(=O)c34)cccc2o1 [CROMOLYN]", "fu": 0}

Qu. Write down the reported fu of C=CC1=C(C(=O)O)N2C(=O)[C@@H](NC(=O)/C(=N\OCC(=O)O)c3csc(N)n3)[C@H]2SC1 [CEFIXIME] , test system: Plasma.
Ans. 0.33

Qu. Find fu (Plasma) for the entry COc1ccc2c(c1)c(CC(=O)O)c(C)n2C(=O)c1ccc(Cl)cc1 [INDOMETHACIN]
Ans. 0.1

Qu. Notebook: pull reported fu for Plasma, entry Cc1c(OCC(F)(F)F)ccnc1C[S+]([O-])c1nc2ccccc2[nH]1 (centres undefined) [LANSOPRAZOLE]
Ans. 0.03

Qu. Test system Plasma; read-out fu; what value for CCn1cc(C(=O)O)c(=O)c2cc(F)c(N3CCNCC3)nc21 [ENOXACIN] ?
Ans. 0.485

Qu. For Plasma, provide fu of COc1cccc(C2(O)CCCCC2CN(C)C)c1 (centres undefined) [TRAMADOL] please.
Ans. 0.96

----------
- Experiment Description: clinical
- Condition Description: human, in vivo
Note to self: class = bucket of Vd, per lo: < 0.6 L/kg; med: ≥ 0.6 L/kg and < 1 L/kg; hi: ≥ 1 L/kg

{"Compound": "CC1(C)S[C@@H]2[C@H](NC(=O)[C@H](N)c3ccc(O)cc3)C(=O)N2[C@H]1C(=O)O", "Class": "med"}

Qu. Lab note: sort `NNC(=O)c1ccncc1` into the matching Vd band.
Ans. med

Qu. Hey, which category is CC(C(=O)O)c1ccc(-c2ccccc2)c(F)c1 (stereo not given) in, do you know?
Ans. lo

Qu. # bin lookup: classify `CC(=O)Oc1ccccc1C(=O)O` by its Vd
Ans. lo

Qu. Which category does the recorded Vd put NC(=O)N1c2ccccc2C=Cc2ccccc21 [CARBAMAZEPINE] in?
Ans. hi

Qu. Assign a bin to `CCC[C@@H]1C[C@@H](C(=O)N[C@@H]([C@H]2O[C@H](SC)[C@H](O)[C@@H](O)[C@H]2O)[C@@H](C)O)N(C)C1`
Ans. hi

----------
- Test system: Plasma
- Condition Description: human
Readout: fu
Respond numerically, and do not add a unit to the figure.

{"Compound": "CCC1(c2ccccc2)C(=O)NC(=O)NC1=O [PHENOBARBITAL]", "fu": 0.5}
{"Compound": "O=C(N[C@H](CO)[C@H](O)c1ccc([N+](=O)[O-])cc1)C(Cl)Cl [CHLORAMPHENICOL]", "fu": 0.47}

Qu. Provide value of fu for this record tested with Plasma: NS(=O)(=O)c1cc(C(=O)O)c(NCc2ccco2)cc1Cl [FUROSEMIDE]
Ans. 0.03

Qu. # query: fu | item O=C(O)Cc1ccccc1Nc1c(Cl)cccc1Cl [DICLOFENAC] | system: Plasma
Ans. 0.01

Qu. Notebook entry, Plasma assay: fu of COc1ccc2c3c1O[C@H]1[C@@H](O)C=C[C@H]4[C@@H](C2)N(C)CC[C@@]341 [CODEINE] = ?
Ans. 0.93

Qu. Lab request: please report fu under test system Plasma for CC(=O)Nc1ccc(O)cc1 [ACETAMINOPHEN]
Ans. 1

Qu. Form: Entry = COc1ccc(Cl)cc1C(=O)NCCc1ccc(S(=O)(=O)NC(=O)NC2CCCCC2)cc1 [GLYBURIDE] | System = Plasma | fu = ____
Ans. 0.01

Qu. Which fu is reported with Plasma for this entry: CN1CC[C@]23c4c5ccc(O)c4O[C@H]2[C@@H](O)C=C[C@H]3[C@H]1C5 [MORPHINE] ?
Ans. 0.61

Qu. Any idea what fu came out for CN(C)CCC=C1c2ccccc2COc2ccccc21 [DOXEPIN] on Plasma?
Ans. 0.17

Qu. Notebook entry, Plasma assay: fu of CCCCN1CCCCC1C(=O)Nc1c(C)cccc1C (centres undefined) [BUPIVACAINE] = ?
Ans. 0.044

Qu. // map CC[C@H](C)C(=O)O[C@H]1C[C@H](O)C=C2C=C[C@H](C)[C@H](CC[C@@H](O)C[C@@H](O)CC(=O)O)[C@H]21 [PRAVASTATIN] to recorded fu (system: Plasma)
Ans. 0.55

Qu. Record CCOC(=O)C1(c2ccccc2)CCN(C)CC1 [MEPERIDINE] : what is its fu with Plasma?
Ans. 0.42

Qu. Given the entry O=C(O)c1ccccc1O [SALICYLIC ACID] , what fu was observed with Plasma?
Ans. 0.05

Qu. Give Plasma fu for COc1ccc2cc([C@H](C)C(=O)O)ccc2c1 [NAPROXEN]
Ans. 0.01

Qu. Query the reported fu for Plasma; item: CC1(C)S[C@@H]2[C@H](NC(=O)[C@H](N)c3ccc(O)cc3)C(=O)N2[C@H]1C(=O)O [AMOXICILLIN]
Ans. 0.82

Qu. Provide the documented fu with Plasma as the system for CO/N=C(\C(=O)N[C@@H]1C(=O)N2C(C(=O)O)=C(COC(C)=O)CS[C@H]12)c1csc(N)n1 [CEFOTAXIME]
Ans. 0.6

Qu. GET /values?readout=fu&system=Plasma&item= CN1CCOC(c2ccccc2)c2ccccc2C1 (centres undefined) [NEFOPAM]
Ans. 0.27

Qu. Under Plasma: fu value of Clc1cccc(Cl)c1N=C1NCCN1 [CLONIDINE] ?
Ans. 0.8
